tested on: Proto-oncogene tyrosine-protein kinase Src (Homo sapiens)
experimental setup: at 10 µM
readout name: residual activity (%)
Output spec: scalar in %, unitless text.

Here `CCN(CC)C(=O)c1ccc(Nc2nc(OCC3CCCCC3)c3nc[nH]c3n2)cc1` was tested on Proto-oncogene tyrosine-protein kinase Src (Homo sapiens), and its residual activity came to 12

Here `Cc1ccc(NC2=CC(=O)c3sc(C)nc3C2=O)cc1` was tested on Proto-oncogene tyrosine-protein kinase Src (Homo sapiens), and its residual activity came to 87

Here `Nc1ccc2ncnc(NCCc3ccc(Oc4ccccc4)cc3)c2c1` was tested on Proto-oncogene tyrosine-protein kinase Src (Homo sapiens), and its residual activity came to 95

Here `CC(C)n1cnc2/c(=N/c3cccc(Cl)c3)nc(NCCO)[nH]c21` was tested on Proto-oncogene tyrosine-protein kinase Src (Homo sapiens), and its residual activity came to 7

Here `N#C/C(=C(\N)Sc1ccc(N)cc1)c1ccccc1C(F)(F)F` was tested on Proto-oncogene tyrosine-protein kinase Src (Homo sapiens), and its residual activity came to 91

Here `Oc1ccc(-c2nc(-c3ccc(F)cc3)c(-c3ccncc3)[nH]2)cc1` was tested on Proto-oncogene tyrosine-protein kinase Src (Homo sapiens), and its residual activity came to 45

Here O=C1Nc2ccccc2/C1=C1/Nc2ccccc2/C1=N\OCCC(O)CO (configuration not stated) was tested on Proto-oncogene tyrosine-protein kinase Src (Homo sapiens), and its residual activity came to -2

Here `O=c1cc(-c2cccc3c2Sc2ccccc2S3)oc(N2CCOCC2)c1` was tested on Proto-oncogene tyrosine-protein kinase Src (Homo sapiens), and its residual activity came to 92

Here `N#CCCc1ccc2c(c1)-c1[nH]c3ccc([N+](=O)[O-])cc3c1CC(=O)N2` was tested on Proto-oncogene tyrosine-protein kinase Src (Homo sapiens), and its residual activity came to 13

Here `O=C(Nc1cccc(Nc2nccc(Nc3cccc(C(F)(F)F)c3)n2)c1)C1CC1` was tested on Proto-oncogene tyrosine-protein kinase Src (Homo sapiens), and its residual activity came to 12

Here `COc1cccc(-c2cc(=O)c3ccccc3o2)c1N` was tested on Proto-oncogene tyrosine-protein kinase Src (Homo sapiens), and its residual activity came to 87

Here `Cc1cc2ncc(-c3ccccc3)nc2cc1C` was tested on Proto-oncogene tyrosine-protein kinase Src (Homo sapiens), and its residual activity came to 99

Here `CC[n+]1c(/C=C/N(C)c2ccccc2)n(-c2ccccc2)c2ccc(-c3nc4ccccc4s3)cc21` was tested on Proto-oncogene tyrosine-protein kinase Src (Homo sapiens), and its residual activity came to 128

Here `CO[C@@H]1[C@H](N(C)C(=O)c2ccccc2)C[C@H]2O[C@]1(C)n1c3ccccc3c3c4c(c5c6ccccc6n2c5c31)C(=O)NC4` was tested on Proto-oncogene tyrosine-protein kinase Src (Homo sapiens), and its residual activity came to 24

Here `c1ccc2c(-c3ccncc3)c[nH]c2c1` was tested on Proto-oncogene tyrosine-protein kinase Src (Homo sapiens), and its residual activity came to 101

Here `c1ccc(-c2n[nH]cc2-c2ccnc3ccccc23)nc1` was tested on Proto-oncogene tyrosine-protein kinase Src (Homo sapiens), and its residual activity came to 90

Here `COc1cc2ncnc(N3CCN(C(=O)Nc4ccc(Oc5ccccc5)cc4)CC3)c2cc1OC` was tested on Proto-oncogene tyrosine-protein kinase Src (Homo sapiens), and its residual activity came to 97

Here `Nc1nc(Nc2ccc(S(N)(=O)=O)cc2)nn1C(=S)Nc1c(F)cccc1F` was tested on Proto-oncogene tyrosine-protein kinase Src (Homo sapiens), and its residual activity came to 1

Here `Cc1nc2cc3nc(-c4cccs4)cnc3cc2n1C` was tested on Proto-oncogene tyrosine-protein kinase Src (Homo sapiens), and its residual activity came to 86

Here `Oc1n[nH]c2nnc(-c3c(-c4ccccc4)nn4ccccc34)cc12` was tested on Proto-oncogene tyrosine-protein kinase Src (Homo sapiens), and its residual activity came to 87

Here `Cn1cc(/C=C2\C(=O)Nc3ccc(S(N)(=O)=O)cc32)c2ccccc21` was tested on Proto-oncogene tyrosine-protein kinase Src (Homo sapiens), and its residual activity came to 25

Here `O=Nc1c(-c2c(O)[nH]c3ccccc23)[nH]c2ccccc12` was tested on Proto-oncogene tyrosine-protein kinase Src (Homo sapiens), and its residual activity came to 5
